Test system: MOLT-4
method.notes: NCI tumour cell line growth inhibition, 48 h
The source made the active and inactive calls. Rule as the data show it: active = GI50 up to about 1.1 µM and inactive = higher.
Labels: 1 = active, -1 = inactive

compound=COc1cc2c(/C=C3/C(=O)Nc4ccccc43)c(Cl)[nH]c2cc1C target_of_assay=MOLT-4 classification=1
compound="COc1ccc(COCC[C@H](C)OC2OC(CO)C(O)C(O)C2O)cc1 (stereo partly specified)" target_of_assay=MOLT-4 classification=-1
compound=Cc1cccc(C)c1NC(=O)C(=O)CC(=O)c1cccc([N+](=O)[O-])c1 target_of_assay=MOLT-4 classification=-1
compound="O=C1C2=Nc3ccccc3C(O)(C(=O)O)N2c2ccccc21 (stereo unspecified)" target_of_assay=MOLT-4 classification=-1
compound="COc1ccc(C2=C(Cl)c3cc(OC)c(OC)cc3C2OC)cc1OC (stereo unspecified)" target_of_assay=MOLT-4 classification=-1
compound="O=C1C=CC2CCC1C2 (stereo unspecified)" target_of_assay=MOLT-4 classification=-1

* * *

Overview of reported GI50 across a group of compounds:
System: SK-MEL-28
method.notes: NCI tumour cell line growth inhibition, 48 h
The source made the active and inactive calls. Rule as the data show it: active = GI50 up to about 1.1 µM and inactive = higher.
readout.type: GI50

compound="CC(=O)C(C)CCOC1(C)OCCC1C (centres undefined)" observed="> 100 µM (inactive)"
compound=CC(=O)O[C@H]1CC[C@@]2(C)C(=CC[C@@H]3[C@@H]2CC[C@]2(C)C(=N/O)/C(=C\c4ccccc4)C[C@@H]32)C1 observed="12.7 µM (inactive)"
compound=CC(C)c1ccccc1SCc1cc(=O)cc(CSc2ccccc2C(C)C)o1 observed="32.7 µM (inactive)"
compound="CC(C)C1CN1CC(O)Cn1ccnc1[N+](=O)[O-] (centres undefined)" observed="> 100 µM (inactive)"
compound="COc1cc(C2c3cc4c(cc3[C@@H](NCCN3CCOCC3)C3COC(=O)[C@H]23)OCO4)cc(OC)c1O (some centres undefined)" observed="3.71 µM (inactive)"
compound=O=C(Nc1ccc2ncccc2c1)Nc1ccc2ncccc2c1 observed="> 100 µM (inactive)"
compound="O=C(c1cc2ccccc2[nH]1)N1C2CCC1CN(CCOC(c1ccc(F)cc1)c1ccc(F)cc1)CC2 (centres undefined)" observed="> 100 µM (inactive)"
compound="CC1C(c2ccc3c(c2)OCO3)c2cc3c(cc2OC1N1CCCCC1)OCO3 (centres undefined)" observed="54.8 µM (inactive)"
compound=Oc1ccc(Cl)cc1/N=N\c1c(O)ccc2ccccc12 observed="> 100 µM (inactive)"
compound=O=C1C=CC(=O)N1n1c(Cc2ccccc2)n[nH]c1=O observed="> 100 µM (inactive)"
compound=COc1ccc(OC)c2sc(N3C(=O)/C(=C/c4ccccc4S)N=C3c3ccccc3)nc12 observed="> 100 µM (inactive)"
compound=Cc1nnc(N2C(=O)C(=Cc3ccc(Cl)cc3)N=C2c2ccc(Cl)cc2)nc1/C=C\c1ccc(N(C)C)cc1 observed="> 100 µM (inactive)"
compound="Nc1nc2c(ncn2C2OC(CO)C(O)C2N)c(=O)[nH]1 (centres undefined)" observed="> 100 µM (inactive)"
compound="CC1(C)OC(COCCOCCCCCO)C(COCCOCCCCCO)O1 (centres undefined)" observed="> 100 µM (inactive)"

* * *

Tested on: KM-20L2
method.notes: NCI tumour cell line growth inhibition, 48 h
Calls of active or inactive are those of the source. No stated cut-off is given here; in the data, active = GI50 up to about 1.1 µM and inactive = higher.
Overview of reported GI50 across a group of compounds:
readout.type: GI50

compound=CCCCCCCCCCCC[N+](CCCCCCCCCCCC)=C1SCCS1 observed="5.28 µM (inactive)"
compound="CC(=O)NC(ON1C(=O)COc2ccccc21)C(Cl)(Cl)Cl (centres undefined)" observed="> 100 µM (inactive)"
compound="Cc1ccc(C)c(NC(=O)C(=O)C2C(=O)N(c3ccccc3)N=C2N)c1 (centres undefined)" observed="> 100 µM (inactive)"
compound="c1ccc2c(c1)Sc1ccccc1N2C1CN2CCC1CC2 (centres undefined)" observed="15.2 µM (inactive)"
compound="COc1cc(C2c3cc4c(cc3[C@@H](NCCN3CCOCC3)C3COC(=O)[C@H]23)OCO4)cc(OC)c1O (some centres undefined)" observed="2.96 µM (inactive)"
compound="C=CCN(N=O)C(=O)N(CCCC(NC(C)=O)C(=O)NCc1ccccc1)Cc1ccccc1 (centres undefined)" observed="42.2 µM (inactive)"
compound="C=CCN(N=O)C(=O)NCCCCC(NC(C)=O)C(=O)NCc1ccccc1 (centres undefined)" observed="> 100 µM (inactive)"
compound=CC(=O)Nc1ccc(-c2nnc(SCC(=O)Nc3ccc(C)cc3)o2)cc1 observed="19.5 µM (inactive)"
compound=COc1ccc2c(c1)c1cc(OC)ccc1n2CCCCOc1ccc(-c2c3ccccc3c(-c3ccc(OCCCCn4c5ccc(OC)cc5c5cc(OC)ccc54)cc3)c3ccccc23)cc1 observed="> 100 µM (inactive)"

* * *

System: A549
method.notes: NCI tumour cell line growth inhibition, 48 h
Active and inactive are the calls of the source. No stated cut-off is given here; in the data, active = GI50 up to about 1.1 µM and inactive = higher.
Labels: YES = active, NO = inactive

compound=NCCCNCCSSCCCCS(=O)O classification=NO
compound=Cc1ccc2c(=O)c3c(O)c4c(cc3n(C)c2c1)OC(C)(C)C=C4 classification=NO
compound=O=C(Nc1ccc2ncccc2c1)Nc1ccc2ncccc2c1 classification=NO
compound="Cc1cccc2[n+]1[C@H]1[C@H]([C@@H]3O[C@H]1c1ccccc13)[S+]([O-])N2 (stereo not given in full)" classification=NO
compound=Nc1ccc(C(=O)N/C(=C\c2cccc([N+](=O)[O-])c2)c2nc3cc(Cl)ccc3[nH]2)cc1 classification=NO
compound="C[C@]12CC[C@H](O)C=C1CC[C@@H]1[C@@H]2CC[C@]2(C)C(c3ccc(=O)oc3)CC[C@]12O (stereo not given in full)" classification=YES
compound=Cn1cc(C[C@@H](N)C(=O)O)c2ccccc21 classification=NO
compound=C=CCOc1ccc2c(C)cc(=O)oc2c1C classification=NO
compound=CCCCCCCCCCCC[N+](CCCCCCCCCCCC)=C1SCCS1 classification=NO
compound=COc1ccc(OC)c2sc(N3C(=O)/C(=C/c4ccccc4S)N=C3c3ccccc3)nc12 classification=NO

* * *

System: DLD-1
method.notes: NCI tumour cell line growth inhibition, 48 h
Active and inactive are the calls of the source. Rule as the data show it: active = GI50 up to about 1.1 µM and inactive = higher.
Labels: active, inactive

compound=CN(C)CCNC(=O)c1ccccc1Nc1c(Cl)cccc1Cl target_of_assay=DLD-1 classification=inactive
compound=Cn1ncc2c(c1=O)Nc1ccccc1S2(=O)=O target_of_assay=DLD-1 classification=inactive
compound="Cc1cccc2[n+]1[C@H]1[C@H]([C@@H]3O[C@H]1c1ccccc13)[S+]([O-])N2 (stereo partly specified)" target_of_assay=DLD-1 classification=inactive
compound=O=CN/C=C/c1cccc(O)c1 target_of_assay=DLD-1 classification=inactive
compound="COc1cc(C2C(C(=O)O)=C(CO)Oc3cc4c(cc32)OCO4)cc(OC)c1OC (stereo unspecified)" target_of_assay=DLD-1 classification=inactive
compound="Nc1nc2c(ncn2C2OC(CO)C(O)C2N)c(=O)[nH]1 (stereo unspecified)" target_of_assay=DLD-1 classification=inactive
compound=CN(C)CCC(CCN(C)C)=NOC(=O)c1ccccc1 target_of_assay=DLD-1 classification=inactive
compound="CC(=O)NC(ON1C(=O)COc2ccccc21)C(Cl)(Cl)Cl (stereo unspecified)" target_of_assay=DLD-1 classification=inactive
compound=Cc1cc2c(c(C(=O)O)c1C)-c1cccc(Cl)c1C2=O target_of_assay=DLD-1 classification=inactive
compound=Cc1cccc(C)c1NC(=O)C(=O)CC(=O)c1cccc([N+](=O)[O-])c1 target_of_assay=DLD-1 classification=inactive
compound=Cc1ccc(S(=O)(=O)SCc2ccccc2)cc1 target_of_assay=DLD-1 classification=inactive
compound="CCOC(=O)C1=C(C(=O)OCC)C2c3ccccc3C=CN2C(C(=O)OCC)=C(SC)S1 (stereo unspecified)" target_of_assay=DLD-1 classification=inactive
compound="O=C(Nc1nc2ccc([N+](=O)[O-])cc2s1)C(=O)C(C(=O)c1ccccc1F)C1OC(=O)c2ccccc21 (stereo unspecified)" target_of_assay=DLD-1 classification=inactive
compound="COc1ccc(C2c3cc4c(cc3OC(O)(CO)C2C(=O)O)OCO4)c(OC)c1OC.COc1ccc(C2c3cc4c(cc3OC3(O)COC(=O)C23)OCO4)c(OC)c1OC (stereo unspecified)" target_of_assay=DLD-1 classification=inactive
compound=C=C(CN(C)C)C(=O)c1cc(C)ccc1C target_of_assay=DLD-1 classification=inactive
compound=COc1ccc2c(c1)c1cc(OC)ccc1n2CCCCOc1ccc(-c2c3ccccc3c(-c3ccc(OCCCCn4c5ccc(OC)cc5c5cc(OC)ccc54)cc3)c3ccccc23)cc1 target_of_assay=DLD-1 classification=inactive
compound=N#C/C(=C\c1c[nH]c2ccccc12)C(=O)c1ccc(O)c(O)c1 target_of_assay=DLD-1 classification=inactive
compound=COc1ccc(/C=C2/C(=O)N(C(=O)c3ccccc3O)N=C2C)cc1OC target_of_assay=DLD-1 classification=active
compound=COc1ccc(S(=O)(=O)NNS(C)(=O)=O)cc1 target_of_assay=DLD-1 classification=inactive
compound="CC1CC(c2ccccc2)=Nc2ccccc2S1(=O)=O (stereo unspecified)" target_of_assay=DLD-1 classification=inactive
compound=O=C1/C(=C/c2ccc(Cl)cc2)CNC/C1=C\c1ccc(Cl)cc1 target_of_assay=DLD-1 classification=inactive
